Data provenance: ChEMBL document CHEMBL3988442

Test system: Wolbachia pipientis
assay-protocol: Anti-Wolbachia Cell-Based Screen
Assay type: functional
Set-up: scale not given: in the data most compounds retested in dose-response had high values
details: 5 µM
Among all 48,000 compounds or so, about 13,000 (27%) showed an effect of 50% or more. Some of the results follow.
readout-name: Percent Effect (%)
Report as a plain number; the unit % is understood.

CS(=O)(=O)c1ccc(C(=O)N2CCCC(n3ccnc3)C2)cc1 (centres undefined) : 96.86

// recorded Percent Effect for Cc1ccc(C#N)c(N2CCC3(CCC(=O)N(CC(N)=O)C3)CC2)n1 : -13.92

// recorded Percent Effect for COc1ccc(N(c2ccc(C)cc2)c2ccc(C(=O)O)s2)cc1 : 128.9

// recorded Percent Effect for CC(C)NC(=O)[C@@H]1Cc2[nH]cnc2CN1CCCc1ccccc1 : -2.135

// recorded Percent Effect for O=C(CCN1CCOCC1)N1CCC(Cc2ccc(CO)cc2)C1 (centres undefined) : -13.67

// recorded Percent Effect for Cc1cc(N2CCC3(CCCN(C4CCOCC4)C3=O)C2)ccn1 (centres undefined) : 118.2

// recorded Percent Effect for NC(=O)CC1c2cccnc2C(=O)N1Cc1ccccc1 (centres undefined) : 97.87

// recorded Percent Effect for N#Cc1cccnc1N1CCC2(CCCN(C3CCOCC3)C2=O)C1 (centres undefined) : -10.29

// recorded Percent Effect for N#Cc1ccc(CN2CCC(CCc3ccc(O)cc3)CC2)cc1 : -49.48

// recorded Percent Effect for Cc1ccc(S(=O)(=O)Nc2c(C)nc(N3CCCC3)nc2C)cc1 : 15.76

// recorded Percent Effect for COCCCC1(CO)CCCN(Cc2cccc(C#N)c2)C1 (centres undefined) : 1.897

// recorded Percent Effect for COc1ccc(N(c2ccc(OC)cc2)c2ccc(C(=O)O)s2)cc1 : 99.84

// recorded Percent Effect for N#Cc1ccc(CSCCN2CCOCC2)cc1 : -1.754

// recorded Percent Effect for O=C(CSc1ncccn1)N1C[C@H]2CC[C@@H]1CN(Cc1ccncc1)C2 : -5.142

// recorded Percent Effect for Cc1cc(N2CCC(c3nnc(CN(C)C)n3C3CC3)CC2)ccn1 : 1.365

// recorded Percent Effect for N#Cc1ccc(N2CCCN(CC(=O)N3CCOCC3)CC2)cc1 : -7.861

// recorded Percent Effect for CC(C)(C)C(O)CN1CCN(Cc2ccc(C#N)cc2)CC1 (centres undefined) : 1.533

// recorded Percent Effect for Cc1ccc(C#N)c(N2CCC(c3nccn3Cc3cscn3)CC2)n1 : -1.954

// recorded Percent Effect for Cc1cnc(C)c(N2CCC3(CCCN(C4CCOCC4)C3=O)C2)n1 (centres undefined) : 106.2

// recorded Percent Effect for N#Cc1ccc(CCC(=O)N2CCC(CN3CCOCC3)CC2)cc1 : 91.48

// recorded Percent Effect for O=C1N(C2CCOCC2)CCCC12CCN(c1ncccc1Cl)C2 (centres undefined) : 119

// recorded Percent Effect for Cn1c(CO)nnc1CC1CCN(Cc2ccc(C#N)cc2)CC1 : 25.57

// recorded Percent Effect for CNC(=O)c1cccnc1N1CCN(Cc2ccccc2)C(CCO)C1 (centres undefined) : -3.747

// recorded Percent Effect for COc1ccc(N(c2ccccc2)c2ccc(C(=O)O)s2)cc1 : 119.4

----------
Test system: Wolbachia pipientis
assay-protocol: Anti-Wolbachia Cell-Based Screen
Assay type: functional
Design: scale not given: in the data most compounds retested in dose-response had high values
details: 5 µM
Hit rate of the full screen: of about 48,000 compounds, about 13,000 (27%) showed an effect of 50% or more. The list shows a part of the results.
Some compounds, each annotated with its measured Percent Effect.
Report as a plain number; the unit % is understood.

Cc1nn(C)cc1S(=O)(=O)NCC(c1ccccc1)N1CCCCCC1.Cl (stereo unspecified) : 112.3
O=C(c1cccs1)N1CCCn2c(nc(CN3CCCC3)cc2=O)C1 : -6.505
O=C(CCc1cc(O)no1)N1CCCC(COc2ccccc2F)C1 (stereo unspecified) : -3.381
Cc1cccc(-c2nc(CN3CCn4c(nnc4C4CC4)C3)no2)c1 : 0.9786
COCC(=O)NCc1cc(=O)n2c(n1)CN(Cc1nccs1)CCC2 : 109.1
CC(C)CCN(C)Cn1ncc2cn(-c3ccccc3)nc2c1=O : 5.11

// recorded Percent Effect for O=C(NCCCn1cncn1)NCC(c1ccccc1)N1CCCC1 (stereo unspecified) : 9.834

// recorded Percent Effect for O=C(NCc1cc[nH]n1)NCC(c1ccccc1Cl)N1CCCC1 (stereo unspecified) : 3.552

// recorded Percent Effect for COc1ccc(S(=O)(=O)NCC(c2cccn2C)N(C)C)c(C)c1 (stereo unspecified) : 5.566

// recorded Percent Effect for CCCN1CCCn2c(nc(CNC(=O)c3nccn3C)cc2=O)C1.O=C(O)C(F)(F)F : -4.018

// recorded Percent Effect for COc1ccc(C(CNS(=O)(=O)c2cn(C)nc2C)N2CCCC2)cc1.Cl (stereo unspecified) : 105.6
